# System: XF 498 CNS
# TEST: NCI tumour cell line growth inhibition, 48 h
For each record, write down the corresponding TGI.

Task item: What does the record list as TGI for `CCOC(=O)NN1C(=O)C(=P(c2ccccc2)(c2ccccc2)c2ccccc2)C(C(=O)OC)=C1C` ?
Reply: > 100 µM

Task item: Note, next up: `Nc1ccc(C(=O)N/C(=C\c2ccc3c(c2)OCO3)c2nc3ccccc3s2)cc1`
Reply: 25.5 µM

Task item: Note, next up: `CCCCn1c(-c2ccccc2)cs/c1=N\NC(=O)Cn1c(C)nc2ccccc21`
Reply: > 100 µM

Task item: Note, next up: Cc1ccc(N2Cc3c(ccc4ccccc34)OP2(=S)N2CCCC2)cc1 (stereo not given)
Reply: > 100 µM

Task item: Note, next up: `O=C(NCCCN1CCN(CCCNC(=O)Nc2cc(Cl)ccc2Cl)CC1)Nc1cc(Cl)ccc1Cl`
Reply: > 100 µM

* * *

# Test system: HCC-2998 colon
# TEST: NCI tumour cell line growth inhibition, 48 h; in the data active = GI50 below about 0.43 µM; inactive = the rest
Field 'call' accepts active, inactive

Task item: What is the recorded call for this molecule in the test? `N.N.N.N.O=S([O-])[O-].[Co+3].[N-]=[N+]=[N-]`
Reply: inactive

Task item: Note, next up: `Cc1cc(C)c(-c2c(O)c(Br)c(-c3c(C)cc(C)c(Br)c3C)c(O)c2Br)c(C)c1Br`
Reply: inactive

Task item: Note, next up: COc1cccc(C2C(C#N)=C(N)Oc3cc(OCCCCCC[P+](c4ccccc4)(c4ccccc4)c4ccccc4)ccc32)c1 (centres undefined)
Reply: inactive

Task item: Note, next up: `CN(CCOc1ccc(NS(C)(=O)=O)cc1)CCc1ccc(NS(C)(=O)=O)cc1`
Reply: inactive

Task item: Note, next up: N#C/C(=C/C=C/c1cccc(Cl)c1)S(=O)c1ccccc1 (centres undefined)
Reply: active

Task item: Note, next up: `CCCC(=O)Nc1cc(/C=C/C(=O)N2C[C@@H]3C[C@]34C2=CC(=O)c2[nH]cc(C)c24)n(C)c1`
Reply: active

Task item: Note, next up: `COc1cc(C=NCC(=O)CSC(c2ccccc2)c2ccccc2)ccc1O`
Reply: inactive

Task item: Note, next up: O=C(O)C(Cc1ccccc1)N1C(=O)/C(=C/C(Cl)=C/c2ccc([N+](=O)[O-])cc2)SC1=S (centres undefined)
Reply: inactive

Task item: Note, next up: `C/C(=N\NC(=S)N1CCCC1)c1ccccn1`
Reply: active

Task item: Note, next up: `COc1ccc(C(=O)c2ccccc2)c(O)c1`
Reply: inactive

Task item: Note, next up: `COc1ccc2c(CN3CCCC[C@H]3O)cc3cc4c(cc3c2c1)OCO4`
Reply: active

Task item: Note, next up: `CCN(CC)c1ccc(/C=N/N=C(N)N)cc1`
Reply: inactive

Task item: Note, next up: `COc1ccc(/C=C(\C#N)c2cc(OC)c(OC)c(OC)c2)cc1`
Reply: active

Task item: Note, next up: `O=C(OCC1=CC(=O)c2ccccc2C1=O)c1ccccc1`
Reply: inactive

* * *

# Tested on: KM12 colon
# TEST: NCI tumour cell line growth inhibition, 48 h
For each record, write down the corresponding GI50.

Task item: What does the record list as GI50 for `C=C(CN1CCN(c2ccccn2)CC1)c1ccc(C(=O)Nc2ccccc2N)cc1` ?
Reply: 0.936 µM

Task item: Note, next up: `Cc1nc(C(=O)OCc2ccccc2)cc(OCc2ccccc2)c1C`
Reply: 29 µM

Task item: Note, next up: `COc1ccc2c(c1)[n+](=O)c(/C=C/C(=O)c1cc(OC)c(OC)c(OC)c1)c(C)n2[O-]`
Reply: 14.4 µM

Task item: Note, next up: `CCCCS(=O)(=O)c1cc(Nc2ccc(O)c3c2C(=O)c2ccccc2C3=O)ccc1C`
Reply: > 100 µM

Task item: Note, next up: C[C@]12CCC3c4ccc(O)cc4CCC3C1CC[C@@H]2NC(=O)/C=C/c1ccc(O)c(O)c1 (some centres not stated)
Reply: 34.2 µM

Task item: Note, next up: `CCOC(=O)/C=C/c1ccc([N+](=O)[O-])o1`
Reply: 12.6 µM

Task item: Note, next up: `N.N.N.N.O=S([O-])[O-].[Co+3].[N-]=[N+]=[N-]`
Reply: > 100 µM

Task item: Note, next up: `COc1ccc(-c2cn3ccnc3c(-c3ccc(Cl)cc3)n2)cc1`
Reply: 4.68 µM

Task item: Note, next up: `CSCc1ncc(-c2ccc(C(F)(F)F)cc2)c(NC2CCCCCC2)n1`
Reply: > 10 µM

Task item: Note, next up: `COc1ccc(C(=O)c2ccccc2)c(O)c1`
Reply: 63 µM

Task item: Note, next up: O=C(O)C(Cc1ccccc1)N1C(=O)/C(=C/C(Cl)=C/c2ccc([N+](=O)[O-])cc2)SC1=S (configuration not stated)
Reply: 2.06 µM

Task item: Note, next up: `CCN(CC)c1ccc(/C=N/N=C(N)N)cc1`
Reply: 3.47 µM
